Test system: E. coli TESEC Mtb Asd
MEASUREMENT DESCRIPTION: growth (OD600 after 10 h); higher = more growth (less inhibition)
ASSAY CONDITIONS: arabinose induction (level): High; compound 0.1 mM; raw OD600 reference: median of DMSO wells 0.331, cell-free background 0.041
Structures can show the parent of a compound that is named as a salt.
Decision: growth >= 0.3 yields yes, all other cases yield no.

CC(C)NCC(O)c1ccc(NS(C)(=O)=O)cc1 (centres undefined) [Sotalol hydrochloride] = no

IN: Reported growth reaches at least 0.3 for "N=c1nc(N2CCCCC2)cc(N)n1O" ?
OUT: yes

IN: Reported growth at or above 0.3? COc1ccc(CN(CCN(C)C)c2ccccn2)cc1 [Pyrilamine maleate]
OUT: no

IN: Does growth meet or surpass 0.3 for Cc1cccc(N(C)C(=S)Oc2ccc3ccccc3c2)c1 [Tolnaftate] ?
OUT: no

IN: Is it the case that C[C@H](CCC(=O)O)[C@H]1CC[C@H]2[C@@H]3C(=O)C[C@@H]4CC(=O)CC[C@]4(C)[C@H]3CC(=O)[C@]12C [Dehydrocholic acid] has growth reaching or exceeding 0.3?
OUT: yes

IN: Test whether the compound CNCCCN1c2ccccc2CCc2ccccc21 [Desipramine hydrochloride] records growth of 0.3 or higher.
OUT: no

IN: Item CC(C)NNC(=O)c1ccncc1 [Iproniazide phosphate] with growth of 0.3 or above?
OUT: yes

IN: Please indicate if the recorded growth for "CCCN(CCC)S(=O)(=O)c1ccc(C(=O)O)cc1" meets or exceeds 0.3.
OUT: yes

IN: Please tell me: is the compound "c1ccc2c(c1)CCCc1cc(NCCN3CCOCC3)nnc1-2" at or over 0.3 in terms of growth?
OUT: no

IN: growth >= 0.3 for CCCCc1oc2ccccc2c1C(=O)c1cc(I)c(OCCN(CC)CC)c(I)c1 [Amiodarone hydrochloride] ?
OUT: no

IN: Determine whether this compound has growth no lower than 0.3: CN(C)CCN1C(=O)c2ccccc2N(C)c2ccccc21 [Dibenzepine hydrochloride]
OUT: no

IN: Check this compound for growth at or above 0.3: COCCOC(=O)C1=C(C)NC(C)=C(C(=O)OC(C)C)C1c1cccc([N+](=O)[O-])c1 (centres undefined)
OUT: no

IN: Please check the record "c1ccc(CNc2ncnc3nc[nH]c23)cc1" and state if its growth is at or above 0.3.
OUT: no

IN: # check: growth of "CCCCc1nc(Cl)c(CO)n1Cc1ccc(-c2ccccc2-c2nnn[nH]2)cc1" is greater than or equal to 0.3
OUT: no

IN: Quick check, growth >= 0.3? "Oc1ncnc2[nH]ncc12"
OUT: yes

IN: Given Cc1ncc([N+](=O)[O-])n1CC(O)CCl (centres undefined) , state whether its growth is at least 0.3.
OUT: yes

IN: Threshold query (growth >= 0.3) on COc1ccc(-c2ccc(=N)n(CCCC(=O)O)n2)cc1 [Gabazine bromide]
OUT: no

IN: Textbook exercise: given the entry CN1[C@@H]2CC[C@H]1C[C@@H](OC(c1ccccc1)c1ccccc1)C2 [Benztropine mesylate] , state whether its growth is greater than or equal to 0.3.
OUT: no

Numbers sourced from the supplement of paper PMC9262897.
